experimental-system: Factor X, P00742
Sequence (P00742 whole entry, looked up): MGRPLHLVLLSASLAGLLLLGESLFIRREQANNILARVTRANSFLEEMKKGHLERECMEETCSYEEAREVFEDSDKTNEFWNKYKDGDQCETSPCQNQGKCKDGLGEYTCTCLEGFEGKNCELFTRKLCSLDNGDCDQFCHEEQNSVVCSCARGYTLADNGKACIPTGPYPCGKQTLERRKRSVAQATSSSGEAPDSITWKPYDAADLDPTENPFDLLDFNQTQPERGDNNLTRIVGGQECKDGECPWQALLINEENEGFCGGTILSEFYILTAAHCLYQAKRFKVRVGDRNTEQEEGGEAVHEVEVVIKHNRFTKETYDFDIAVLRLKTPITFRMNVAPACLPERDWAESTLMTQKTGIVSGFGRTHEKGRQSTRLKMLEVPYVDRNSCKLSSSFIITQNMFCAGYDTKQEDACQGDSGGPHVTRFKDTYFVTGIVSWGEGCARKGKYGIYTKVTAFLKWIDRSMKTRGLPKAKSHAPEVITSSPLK

>  <protein>
FIXa R318Y/R338E/E410N/T412V (protein) chain 1: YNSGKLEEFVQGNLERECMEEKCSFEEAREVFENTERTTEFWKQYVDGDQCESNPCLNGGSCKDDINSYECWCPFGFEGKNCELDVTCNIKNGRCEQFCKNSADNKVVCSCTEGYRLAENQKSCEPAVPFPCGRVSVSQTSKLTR chain 2: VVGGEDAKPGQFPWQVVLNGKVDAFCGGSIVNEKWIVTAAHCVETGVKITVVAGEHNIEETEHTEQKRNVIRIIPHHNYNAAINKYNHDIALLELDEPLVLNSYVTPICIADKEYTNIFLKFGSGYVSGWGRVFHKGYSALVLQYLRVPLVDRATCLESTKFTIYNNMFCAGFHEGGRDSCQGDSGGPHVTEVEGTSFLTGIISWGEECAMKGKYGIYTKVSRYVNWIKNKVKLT

>  <% of WT kcat/KM, %>
571

$$$$
>  <protein>
FIXa-I251S/R318Y/R338E/R403E/E410N (protein) chain 1: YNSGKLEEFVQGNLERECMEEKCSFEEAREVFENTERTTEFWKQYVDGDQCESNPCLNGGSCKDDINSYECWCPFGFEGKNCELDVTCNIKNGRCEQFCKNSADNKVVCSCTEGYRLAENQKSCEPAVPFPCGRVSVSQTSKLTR chain 2: VVGGEDAKPGQFPWQVVLNGKVDAFCGGSIVNEKWIVTAAHCVETGVKITVVAGEHNIEETEHTEQKRNVSRIIPHHNYNAAINKYNHDIALLELDEPLVLNSYVTPICIADKEYTNIFLKFGSGYVSGWGRVFHKGYSALVLQYLRVPLVDRATCLESTKFTIYNNMFCAGFHEGGRDSCQGDSGGPHVTEVEGTSFLTGIISWGEECAMKGKYGIYTKVSEYVNWIKNKTKLT

>  <% of WT kcat/KM, %>
344

$$$$
>  <protein>
FIXa-Y155F/R318Y/R338E/T343R/E410N (protein) chain 1: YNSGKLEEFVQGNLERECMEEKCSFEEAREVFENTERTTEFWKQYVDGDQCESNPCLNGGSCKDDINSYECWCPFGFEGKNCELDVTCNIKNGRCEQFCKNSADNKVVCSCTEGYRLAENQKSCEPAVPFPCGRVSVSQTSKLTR chain 2: VVGGEDAKPGQFPWQVVLNGKVDAFCGGSIVNEKWIVTAAHCVETGVKITVVAGEHNIEETEHTEQKRNVIRIIPHHNYNAAINKYNHDIALLELDEPLVLNSYVTPICIADKEYTNIFLKFGSGYVSGWGRVFHKGYSALVLQYLRVPLVDRATCLESTKFRIYNNMFCAGFHEGGRDSCQGDSGGPHVTEVEGTSFLTGIISWGEECAMKGKYGIYTKVSRYVNWIKNKTKLT

>  <% of WT kcat/KM, %>
794

$$$$
>  <protein>
FIXa-Y155F/K247N/N249S/T343R/R403E (protein) chain 1: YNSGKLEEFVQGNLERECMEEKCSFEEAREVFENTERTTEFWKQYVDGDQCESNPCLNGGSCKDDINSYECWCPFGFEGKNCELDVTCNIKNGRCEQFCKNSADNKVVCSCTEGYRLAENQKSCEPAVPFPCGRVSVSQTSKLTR chain 2: VVGGEDAKPGQFPWQVVLNGKVDAFCGGSIVNEKWIVTAAHCVETGVKITVVAGEHNIEETEHTEQNRSVIRIIPHHNYNAAINKYNHDIALLELDEPLVLNSYVTPICIADKEYTNIFLKFGSGYVSGWGRVFHKGRSALVLQYLRVPLVDRATCLRSTKFRIYNNMFCAGFHEGGRDSCQGDSGGPHVTEVEGTSFLTGIISWGEECAMKGKYGIYTKVSEYVNWIKEKTKLT

>  <% of WT kcat/KM, %>
184

$$$$
>  <protein>
FIXa R318Y/R338E/R403E/T412A (protein) chain 1: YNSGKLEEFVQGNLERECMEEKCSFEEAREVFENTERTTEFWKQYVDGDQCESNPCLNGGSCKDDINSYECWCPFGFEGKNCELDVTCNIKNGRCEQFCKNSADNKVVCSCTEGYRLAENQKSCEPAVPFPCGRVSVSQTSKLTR chain 2: VVGGEDAKPGQFPWQVVLNGKVDAFCGGSIVNEKWIVTAAHCVETGVKITVVAGEHNIEETEHTEQKRNVIRIIPHHNYNAAINKYNHDIALLELDEPLVLNSYVTPICIADKEYTNIFLKFGSGYVSGWGRVFHKGYSALVLQYLRVPLVDRATCLESTKFTIYNNMFCAGFHEGGRDSCQGDSGGPHVTEVEGTSFLTGIISWGEECAMKGKYGIYTKVSEYVNWIKEKAKLT

>  <% of WT kcat/KM, %>
173

$$$$
>  <protein>
FIXa Y155F/R318Y/R338E/N346D/R403E/E410N (protein) chain 1: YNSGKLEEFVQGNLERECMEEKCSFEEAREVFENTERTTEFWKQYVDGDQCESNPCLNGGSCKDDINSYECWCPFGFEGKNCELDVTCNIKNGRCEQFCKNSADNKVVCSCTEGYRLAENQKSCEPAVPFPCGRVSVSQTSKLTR chain 2: VVGGEDAKPGQFPWQVVLNGKVDAFCGGSIVNEKWIVTAAHCVETGVKITVVAGEHNIEETEHTEQKRNVIRIIPHHNYNAAINKYNHDIALLELDEPLVLNSYVTPICIADKEYTNIFLKFGSGYVSGWGRVFHKGYSALVLQYLRVPLVDRATCLESTKFTIYDNMFCAGFHEGGRDSCQGDSGGPHVTEVEGTSFLTGIISWGEECAMKGKYGIYTKVSEYVNWIKNKTKLT

>  <% of WT kcat/KM, %>
135

$$$$
>  <protein>
FIXa-R318Y/R338E/E410N/T412V (protein) chain 1: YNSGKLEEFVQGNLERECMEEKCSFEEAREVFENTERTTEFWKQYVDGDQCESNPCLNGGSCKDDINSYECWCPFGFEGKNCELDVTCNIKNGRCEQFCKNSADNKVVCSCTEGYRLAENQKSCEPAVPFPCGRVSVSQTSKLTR chain 2: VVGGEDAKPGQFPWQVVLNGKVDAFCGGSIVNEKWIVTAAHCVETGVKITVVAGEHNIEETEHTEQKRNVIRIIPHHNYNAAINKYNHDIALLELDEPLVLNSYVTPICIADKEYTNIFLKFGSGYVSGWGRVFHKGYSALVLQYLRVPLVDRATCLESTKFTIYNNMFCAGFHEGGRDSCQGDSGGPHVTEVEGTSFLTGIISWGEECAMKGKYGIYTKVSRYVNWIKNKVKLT

>  <% of WT kcat/KM, %>
536

$$$$
